All values here come from PubChem BioAssay AID1159580.

method-notes: chemical genetic growth profiling, strain panel (AID 1159580);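 also: tested at 20 µM; growth read once vehicle control cultures reached saturation at 30 °C; 1 = growth at the plate median or of vehicle wells; lower values mean less growth of the strain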
condition-set: S. cerevisiae deletion strains, growth OD, locus YEL003W, strain gim4, hits give low values
Among all 5,500 compounds or so, about 2,000 (36%) were called active. Roughly 18% stayed inconclusive and do not appear here. This is one part of the list. Where a SMILES comes first, the peptide text is derived from it. Bridges are numbered along the chain shown (N, C = ends). [ ]: non-standard residue; d: D form. The star is where a group is joined. Octanoyl(6-Me) = CCC(C)CCCCC(=O)*; Dab = NCC[CH](N)C(=O)O
reported-metric: normalized growth
The reply should be a number, written without any unit.

Known normalized growth results, listed for orientation:
INSERT INTO measurements (compound, result) VALUES
  ('CN1CCN(CCCN2c3ccccc3Sc3ccc(C(F)(F)F)cc32)CC1', 0.0619),
  ('COc1cc(/C=C/C(=O)N2CCC=CC2=O)cc(OC)c1OC', 1),
  ('Cc1onc(-c2c(Cl)cccc2Cl)c1C(=O)N[C@@H]1C(=O)N2[C@@H]1SC(C)(C)[C@@H]2C(=O)O', 0.973),
  ('CN(C)CCc1c[nH]c2ccc(C[C@H]3COC(=O)N3)cc12', 1),
  ('c1ccc([C@H]2CN3CCSC3=N2)cc1', 1.01),
  ('COc1cc2c(cc1OC)[C@@]13CCN4CC5=CCOC6CC(=O)N2C1[C@H]6[C@H]5C[C@H]43 (stereo partly specified)', 0.997);

Query: Given the compound CNC(Cc1c[nH]c2ccccc12)C(=O)O (stereo unspecified) , what is its reported normalized growth?
Result: 1

Query: Bench note: what normalized growth did `CC1=NN(c2ccccc2)C(=O)C1` show?
Result: 0.97

Query: I would be grateful if you could share the reported normalized growth for `NC(N)=NC(N)=Nc1ccccc1` .
Result: 0.998

Query: Which normalized growth value belongs to CC(=O)CC1CCCCN1 (stereo unspecified) ?
Result: 1.01

Query: Requested read-out: normalized growth. Entry: CCC(C)CCCCC(=O)NC(CCN)C(=O)NC(C(=O)NC(CCN)C(=O)NC1CCNC(=O)C(C(C)O)NC(=O)C(CCN)NC(=O)C(CCN)NC(=O)C(CC(C)C)NC(=O)C(Cc2ccccc2)NC(=O)C(CCN)NC1=O)C(C)O (stereo unspecified) ({Octanoyl(6-Me)}-[Dab]T[Dab][Dab][Dab]FL[Dab][Dab]T; lactam 4-C; configuration not given here)
Result: 0.997

Query: Quick one: normalized growth for CC(=O)OCC(=O)[C@@]12OC3(CCCC3)O[C@@H]1CC1C3CCC4=CC(=O)C=C[C@]4(C)[C@@]3(F)[C@@H](O)C[C@@]12C (stereo partly specified) ?
Result: 1.02
